Below is a list of entries, each paired with its recorded pIC50 value.
- Study Target: human TRPA1 (Homo sapiens, UniProt O75762)
- Construct: expressed in transfected cells
- Sequence (O75762 whole entry): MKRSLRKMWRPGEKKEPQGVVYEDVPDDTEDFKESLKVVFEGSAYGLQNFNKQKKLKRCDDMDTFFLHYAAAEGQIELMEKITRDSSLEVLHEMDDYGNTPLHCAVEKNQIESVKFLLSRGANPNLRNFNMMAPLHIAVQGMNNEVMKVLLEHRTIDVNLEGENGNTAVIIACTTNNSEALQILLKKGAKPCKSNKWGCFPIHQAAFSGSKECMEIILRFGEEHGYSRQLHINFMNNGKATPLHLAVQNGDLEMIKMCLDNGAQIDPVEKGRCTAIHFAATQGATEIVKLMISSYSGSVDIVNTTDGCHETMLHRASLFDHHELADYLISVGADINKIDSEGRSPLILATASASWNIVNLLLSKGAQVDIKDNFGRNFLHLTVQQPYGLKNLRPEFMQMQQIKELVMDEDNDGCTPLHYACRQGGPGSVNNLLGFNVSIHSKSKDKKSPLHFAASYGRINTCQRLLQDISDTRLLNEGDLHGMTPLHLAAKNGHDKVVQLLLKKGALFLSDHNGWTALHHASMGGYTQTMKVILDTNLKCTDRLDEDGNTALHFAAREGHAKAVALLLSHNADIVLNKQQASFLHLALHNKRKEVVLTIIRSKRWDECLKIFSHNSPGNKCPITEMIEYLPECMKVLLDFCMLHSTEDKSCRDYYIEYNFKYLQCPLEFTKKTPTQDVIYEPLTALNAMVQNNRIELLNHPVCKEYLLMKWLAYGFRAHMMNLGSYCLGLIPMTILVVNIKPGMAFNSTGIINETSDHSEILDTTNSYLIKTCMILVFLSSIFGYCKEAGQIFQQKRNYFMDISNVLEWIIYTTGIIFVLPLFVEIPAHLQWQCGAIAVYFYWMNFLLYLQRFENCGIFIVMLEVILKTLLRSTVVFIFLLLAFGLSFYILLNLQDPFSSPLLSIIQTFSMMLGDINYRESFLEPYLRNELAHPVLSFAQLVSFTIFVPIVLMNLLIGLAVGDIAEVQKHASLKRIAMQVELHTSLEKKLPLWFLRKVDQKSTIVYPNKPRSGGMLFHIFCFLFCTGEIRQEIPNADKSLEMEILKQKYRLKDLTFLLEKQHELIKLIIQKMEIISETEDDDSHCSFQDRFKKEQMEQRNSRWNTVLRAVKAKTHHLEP
- Test Name: Cell-based functional intracellular calcium ([Ca2+]i) assay, Fluo-4/Fluo-8, FlexStation, challenge with reference TRPA1 agonist (FFA, AITC or 4-HNE)
- Cond: HEK293 cells expressing human TRPA1; IC50 class after addition of reference TRPA1 agonist (FFA, AITC or 4-HNE); read-out: human TRPA1-HEK Activity
pIC50: −log10 of the molar value.
Recorded Metric: pIC50

INSERT INTO assay_data (smiles_data, measured_value) VALUES
  ('O=C(c1cc(-c2ccncc2)n(-c2ccc3c(c2)OCO3)n1)N1CCC2(CC1)C(=O)NCN2c1ccccc1', '< 4.60'),
  ('CN1C(=O)COc2cc(NC(=O)c3cc(-c4ccncc4)n(-c4ccc(F)c(F)c4)n3)ccc21', '< 4.60'),
  ('O=C(c1cc(-c2ccncc2)n(-c2ccc(F)c(F)c2)n1)N1CCC(n2c(=O)[nH]c3ccccc32)CC1', '4.60 to 5.30'),
  ('O=C(c1cc(-c2cccnc2Cl)n(-c2ccc(C(F)(F)F)c(F)c2)n1)N1CCC(n2c(=O)[nH]c3ccc(F)c(F)c32)CC1', '< 4.60'),
  ('O=C(c1cc(-c2cccnc2)n(-c2ccc(F)c(C(F)(F)F)c2)n1)N1CCC(n2c(=O)[nH]c3ccc(F)c(F)c32)CC1', '5.30 to 9.00'),
  ('O=C(c1cc(-c2cccnc2)n(-c2cc(F)c(F)c(F)c2)n1)N1CCC2(CC1)C(=O)NCN2c1ccc(Br)cc1', '5.30 to 9.00'),
  ('O=C1OC2(CCN(C(=O)c3cc(-c4ccncc4)n(-c4ccc(C(F)(F)F)cc4)n3)CC2)c2ccccc21', '< 4.60'),
  ('O=C(c1cc(-c2ccncc2)n(-c2ccc(C(F)(F)F)cc2)n1)N1CCC(n2c(=O)[nH]c3ccccc32)CC1', '4.60 to 5.30'),
  ('O=C(c1cc(-c2ccncc2)n(-c2ccccc2)n1)N1CCC2(CCCC2)CC1', '< 4.60'),
  ('O=C1NC(=O)C2(CCN(C(=O)c3cc(-c4ccncc4)n(-c4ccccc4)n3)CC2)N1', '< 4.60'),
  ('O=C(c1cc(-c2ccncc2)n(-c2ccc(F)c(F)c2)n1)N1CCC(c2nc3ccccc3o2)CC1', '< 4.60'),
  ('N#Cc1ccc(-n2nc(C(=O)N3CCC4(CC3)C(=O)NCN4c3ccc(F)c(F)c3)cc2-c2cccnc2)cc1', '5.30 to 9.00'),
  ('O=C(c1cc(-c2ccncc2)n(-c2cc(C(F)(F)F)cc(C(F)(F)F)c2)n1)N1CCC(n2c(=O)[nH]c3ccccc32)CC1', '4.60 to 5.30'),
  ('Cc1cc(N2CNC(=O)C23CCN(C(=O)c2cc(-c4cccnc4)n(-c4cc(F)c(F)c(F)c4)n2)CC3)ccc1F', '5.30 to 9.00');

* * *

- Study Target: human TRPA1 (Homo sapiens, UniProt O75762)
- Construct: expressed in transfected cells
- Test Name: Cell-based functional intracellular calcium ([Ca2+]i) assay, Fluo-4/Fluo-8, FlexStation, challenge with reference TRPA1 agonist (FFA, AITC or 4-HNE)
- Cond: HEK293 cells expressing human TRPA1; IC50 class after addition of reference TRPA1 agonist (FFA, AITC or 4-HNE); read-out: human TRPA1-HEK Activity
Below is a list of entries, each paired with its recorded IC50 value.
Recorded Metric: IC50

INSERT INTO results (smiles_data, study_target, measured_value) VALUES
  ('O=C(c1cc(-c2cccnc2)n(-c2ccc(F)c(C(F)(F)F)c2)n1)N1CCC(N2Cc3c(F)cccc3NC2=O)CC1', 'human TRPA1 (Homo sapiens, UniProt O75762)', '0.001 to 5 µM'),
  ('Cc1c(F)ccc2[nH]c(=O)n(C3CCN(C(=O)c4cc(-c5cccnc5)n(-c5cc(F)c(F)c(F)c5)n4)CC3)c12', 'human TRPA1 (Homo sapiens, UniProt O75762)', '0.001 to 5 µM'),
  ('O=C(c1cc(-c2cccnc2)n(-c2ccc(C(F)(F)F)c(F)c2)n1)N1CCC(n2c(=O)[nH]c3ccc(F)c(C(F)(F)F)c32)CC1', 'human TRPA1 (Homo sapiens, UniProt O75762)', '0.001 to 5 µM'),
  ('O=C(c1cc(-c2cccnc2)n(-c2ccc(C(F)(F)F)c(F)c2)n1)N1CCC2(CC1)C(=O)NCN2c1ccc(F)cc1', 'human TRPA1 (Homo sapiens, UniProt O75762)', '0.001 to 5 µM'),
  ('O=C(c1cc(-c2cccnc2)n(-c2ccc(I)c(C(F)(F)F)c2)n1)N1CCC2(CC1)C(=O)NCN2c1ccc(F)cc1', 'human TRPA1 (Homo sapiens, UniProt O75762)', '0.001 to 5 µM'),
  ('N#Cc1ccc(-n2nc(C(=O)N3CCC4(CC3)C(=O)NCN4c3ccc(F)c(F)c3)cc2-c2cccnc2)cc1F', 'human TRPA1 (Homo sapiens, UniProt O75762)', '0.001 to 5 µM'),
  ('N#Cc1ccc(-n2nc(C(=O)N3CCC(n4c(=O)[nH]c5ccc(F)c(F)c54)CC3)cc2-c2cccnc2)cc1F', 'human TRPA1 (Homo sapiens, UniProt O75762)', '0.001 to 5 µM'),
  ('O=C1Nc2cc(F)ccc2C2(CCN(C(=O)c3cc(-c4cccnc4)n(-c4ccc(F)c(C(F)(F)F)c4)n3)CC2)O1', 'human TRPA1 (Homo sapiens, UniProt O75762)', '0.001 to 5 µM'),
  ('O=C1Nc2ccc(C(F)(F)F)cc2C2(CCN(C(=O)c3cc(-c4cccnc4)n(-c4ccc(F)c(C(F)(F)F)c4)n3)CC2)O1', 'human TRPA1 (Homo sapiens, UniProt O75762)', '0.001 to 5 µM');
